- Test details: Tmax in C57B16/J mouse at 100 mg/kg, po
- Assay type: ADME, organism-based
- Parameters: dose 100 mg/kg, route oral
- Experimental context: in vivo
Measure name: Tmax (min)

Smiles repr: O=C(O)c1cc(O)cc(Cl)c1
Unit tag: min
Experimental result: 30

----------
- Assay system: UniProt:B9UM29
- Sequence (B9UM29 whole entry): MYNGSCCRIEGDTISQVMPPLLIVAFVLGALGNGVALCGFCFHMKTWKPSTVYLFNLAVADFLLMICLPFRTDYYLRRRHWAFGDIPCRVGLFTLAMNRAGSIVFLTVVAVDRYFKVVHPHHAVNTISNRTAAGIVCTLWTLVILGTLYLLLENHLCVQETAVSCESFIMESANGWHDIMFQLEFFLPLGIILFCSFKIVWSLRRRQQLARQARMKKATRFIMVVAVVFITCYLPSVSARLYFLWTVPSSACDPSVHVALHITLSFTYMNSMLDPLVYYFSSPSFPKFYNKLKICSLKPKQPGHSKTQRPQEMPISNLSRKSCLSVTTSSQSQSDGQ
- Test details: Agonist activity at monkey GPR81
pEC50: −log10 of the molar value.

Smiles repr: O=C(O)c1cc(O)cc(Cl)c1
pEC50: 4.77

----------
- Test details: Tmax in C57B16/J mouse at 30 mg/kg, po
- Type: ADME, organism-based
- Parameters: dose 30 mg/kg, route oral
- Experimental context: in vivo

Smiles repr: O=C(O)c1cc(O)cc(Cl)c1
Unit tag: min
Tmax: 30

----------
- Assay system: Hydroxycarboxylic acid receptor 1 (Homo sapiens, UniProt Q9BXC0)
- Sequence (Q9BXC0 whole entry): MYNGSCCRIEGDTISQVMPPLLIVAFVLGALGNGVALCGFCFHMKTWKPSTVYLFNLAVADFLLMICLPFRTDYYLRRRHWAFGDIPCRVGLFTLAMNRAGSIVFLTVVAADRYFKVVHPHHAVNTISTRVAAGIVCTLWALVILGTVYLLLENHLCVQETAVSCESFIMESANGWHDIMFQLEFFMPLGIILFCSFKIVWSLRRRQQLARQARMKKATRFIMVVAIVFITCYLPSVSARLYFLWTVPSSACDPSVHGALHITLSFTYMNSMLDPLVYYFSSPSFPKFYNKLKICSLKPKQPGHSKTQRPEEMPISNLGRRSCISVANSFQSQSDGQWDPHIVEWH
- Test details: Agonist activity at human recombinant GPR81 transfected in african green monkey COS-7 cells after 20 mins by [35S]GTPgammaS binding assay
- Type: functional, cell-based
pEC50: −log10 of the molar value.
Measure name: pEC50

Molecule: Cc1cc(O)cc(C(=O)O)c1
Experimental result: 4.38
--
Molecule: O=C(O)c1cc(O)cc(C(F)(F)F)c1
Experimental result: < 3.00
--
Molecule: CP(=O)(O)c1cc(O)cc(O)c1
Experimental result: < 3.00
--
Molecule: OB(O)c1cccc(O)c1
Experimental result: < 3.00
--
Molecule: Oc1cc(O)cc(-c2nnn[nH]2)c1
Experimental result: < 3.00
--
Molecule: O=C(O)c1cc(O)c[n+]([O-])c1
Experimental result: < 3.00
--
Molecule: N#Cc1cc(O)cc(C(=O)O)c1
Experimental result: < 3.00
--
Molecule: O=C(O)c1cc(O)cc(-c2ccccc2)c1
Experimental result: < 3.00
--
Molecule: O=C(O)c1cc(O)cc(O)c1 [3,5-DIHYDROXYBENZOIC ACID]
Experimental result: 3.42
--
Molecule: O=C(O)c1cccc(O)c1 [3-HYDROXYBENZOIC ACID]
Experimental result: 3.74
--
Molecule: COc1cc(O)cc(C(=O)O)c1
Experimental result: < 3.00
--
Molecule: CC(C)(C)c1cc(O)cc(C(=O)O)c1
Experimental result: < 3.00
--
Molecule: O=C(O)c1cc(O)cc(Br)c1
Experimental result: 3.89
--
Molecule: O=P(O)(O)c1cc(O)cc(O)c1
Experimental result: < 3.00
--
Molecule: O=C(O)c1cc(O)cc(F)c1
Experimental result: 4.42
--
Molecule: O=C(O)c1cncc(O)c1
Experimental result: < 3.00
--
Molecule: O=C(O)c1cc(O)cc(Cl)c1
Experimental result: 4.80

----------
- Test details: Cmax in C57B16/J mouse at 100 mg/kg, po
- Format: ADME, organism-based
- Set-up: dose 100 mg/kg, route oral
- Experimental context: in vivo
Measure name: Cmax (µM)

Smiles repr: O=C(O)c1cc(O)cc(Cl)c1
Unit tag: µM
Experimental result: 342

----------
- Assay system: Protein Gpr81 (Rattus norvegicus)
- Sequence (G3V906 whole entry): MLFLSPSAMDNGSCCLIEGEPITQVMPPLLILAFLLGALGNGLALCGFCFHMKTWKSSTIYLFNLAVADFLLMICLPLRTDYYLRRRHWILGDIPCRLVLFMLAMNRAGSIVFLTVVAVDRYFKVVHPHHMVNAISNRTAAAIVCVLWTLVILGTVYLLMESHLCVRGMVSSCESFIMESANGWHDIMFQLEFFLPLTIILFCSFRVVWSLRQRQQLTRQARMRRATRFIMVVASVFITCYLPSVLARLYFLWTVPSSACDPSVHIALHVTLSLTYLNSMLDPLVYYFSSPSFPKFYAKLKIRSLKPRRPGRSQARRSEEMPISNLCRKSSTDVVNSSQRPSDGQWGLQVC
- Test details: Agonist activity at rat GPR81
pEC50: −log10 of the molar value.

Smiles repr: O=C(O)c1cc(O)cc(Cl)c1
Assay system: Protein Gpr81 (Rattus norvegicus)
pEC50: 5.15
